All values here come from the supplement of paper PMC6757056.

So I've got a bunch of variants here, and I need their normalized RNA/DNA level without ligand (log10) values.
B1: library; a variant is named by its letters at N, in order (parent)
chain: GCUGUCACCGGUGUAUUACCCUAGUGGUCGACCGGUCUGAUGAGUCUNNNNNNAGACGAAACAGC

Variants of: B1
Assay: normalized RNA/DNA level without ligand (relative to sTRSVctl = 100) (log10 (% of sTRSVctl)); ligand: hypoxanthine (xanthine aptamer); higher = less ribozyme self-cleavage, higher mRNA level
Conditions: HEK293T, reporter: mCherry (pCS4076), ligand present: no
Respond using a number only.

Look up normalized RNA/DNA level without ligand (log10): AAAUCA
1.81

Recorded normalized RNA/DNA level without ligand (log10) for ACGGCA , please?
1.7

For the variant GGUGGU , what normalized RNA/DNA level without ligand (log10) is on record?
1.86

Look up normalized RNA/DNA level without ligand (log10): CGUGGA
1.73

Could you tell me which normalized RNA/DNA level without ligand (log10) is on file for CGAGUG ?
1.76

Returns the measured normalized RNA/DNA level without ligand (log10) for the input variant. Input: AUGGUU
1.76

I am curious: what normalized RNA/DNA level without ligand (log10) value has been reported for CUCCCA ?
1.87

Look up normalized RNA/DNA level without ligand (log10): UCACUA
1.83

Please give the measured normalized RNA/DNA level without ligand (log10) for this variant: UGAUUC
1.98

For CGCUUC , what is its reported normalized RNA/DNA level without ligand (log10)?
1.92

Request the reported normalized RNA/DNA level without ligand (log10) associated with UAUAGC
1.83

What normalized RNA/DNA level without ligand (log10) value was documented for this variant, UUUGUA ?
1.87

If you can, please state the reported normalized RNA/DNA level without ligand (log10) value of GAUCUC .
1.98

Using the record for CCCGGC , report its normalized RNA/DNA level without ligand (log10).
1.86

Give its normalized RNA/DNA level without ligand (log10) value. Item: AUAAGC
1.79

Item GAUCAU has what recorded normalized RNA/DNA level without ligand (log10)?
1.92

# query: normalized RNA/DNA level without ligand (log10) of entry UGGCGA
1.65

Please look up its normalized RNA/DNA level without ligand (log10): GCGUGC
1.62

Recorded normalized RNA/DNA level without ligand (log10) for GAAAUC , please?
1.88

Quick one: normalized RNA/DNA level without ligand (log10) for GUCAGU ?
1.83

// query normalized RNA/DNA level without ligand (log10) value for entry GCGUCG
1.53

Report normalized RNA/DNA level without ligand (log10) for ACUUUG please.
1.57

What value of normalized RNA/DNA level without ligand (log10) has been recorded for this entry: UUUGGG
1.71

Reported normalized RNA/DNA level without ligand (log10) for UGACAG : what is it?
1.66

normalized RNA/DNA level without ligand (log10) lookup needed for UCAGAA , thanks.
1.66

Endpoint output: normalized RNA/DNA level without ligand (log10) of CCCUAC . Value?
1.9

What measured normalized RNA/DNA level without ligand (log10) goes with GUUCAA ?
1.79

Which value of normalized RNA/DNA level without ligand (log10) has been reported for CUUCUG in the records?
1.91

Which measured normalized RNA/DNA level without ligand (log10) value corresponds to GGCAAU ?
1.86

Can you look up the measured normalized RNA/DNA level without ligand (log10) of ACAUCU for me?
1.87

So what's the measured normalized RNA/DNA level without ligand (log10) for this one? GUGUGG
1.27

Would you mind telling me what normalized RNA/DNA level without ligand (log10) value was observed for GGAUCG ?
1.64

Which measured normalized RNA/DNA level without ligand (log10) value corresponds to AAGUGG ?
1.09

Which normalized RNA/DNA level without ligand (log10) reading was recorded for the variant CGAUUG ?
1.92

# get_value(readout='normalized RNA/DNA level without ligand (log10)', item= CGGAAU )
1.42

Can you look up the measured normalized RNA/DNA level without ligand (log10) of AGGUCU for me?
1.81

Fill in: normalized RNA/DNA level without ligand (log10) of CCGAGA is ___
1.51

Which value of normalized RNA/DNA level without ligand (log10) has been reported for GGUUAU in the records?
1.79

Tell me the measured normalized RNA/DNA level without ligand (log10) of UAUGCU , please.
1.85

Fill in: normalized RNA/DNA level without ligand (log10) of ACCUGU is ___
1.81
